Target Under Test: DNA topoisomerase 1 (Homo sapiens, UniProt P11387)
Sequence (P11387 whole entry): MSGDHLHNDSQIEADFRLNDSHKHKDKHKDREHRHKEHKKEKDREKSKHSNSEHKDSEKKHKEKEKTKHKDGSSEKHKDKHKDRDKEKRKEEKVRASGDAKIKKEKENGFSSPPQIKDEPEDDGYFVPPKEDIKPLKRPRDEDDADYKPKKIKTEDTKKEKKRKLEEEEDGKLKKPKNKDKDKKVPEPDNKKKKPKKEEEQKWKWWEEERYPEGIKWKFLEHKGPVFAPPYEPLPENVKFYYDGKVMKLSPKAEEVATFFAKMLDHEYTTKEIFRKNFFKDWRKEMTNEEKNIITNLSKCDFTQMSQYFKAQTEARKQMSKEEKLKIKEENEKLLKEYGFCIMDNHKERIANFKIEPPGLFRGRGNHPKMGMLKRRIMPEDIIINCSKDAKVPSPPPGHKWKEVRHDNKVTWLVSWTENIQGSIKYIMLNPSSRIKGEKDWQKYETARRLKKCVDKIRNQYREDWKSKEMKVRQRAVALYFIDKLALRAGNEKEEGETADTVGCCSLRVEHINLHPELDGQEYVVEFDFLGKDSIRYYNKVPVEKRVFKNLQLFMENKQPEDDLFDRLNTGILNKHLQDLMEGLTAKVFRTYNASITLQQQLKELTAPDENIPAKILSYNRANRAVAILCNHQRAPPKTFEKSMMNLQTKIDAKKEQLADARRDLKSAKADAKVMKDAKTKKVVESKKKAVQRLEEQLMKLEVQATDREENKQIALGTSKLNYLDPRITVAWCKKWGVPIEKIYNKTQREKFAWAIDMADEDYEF
Experiment: In vitro activity against topoisomerase-1 mediated cleavage of supercoiled pBR322 plasmid DNA
// boundary case: EC50 equal to 600 nM maps to Not satisfied; strictly smaller maps to Satisfied

[
  {
    "Compound": "O=C(O)CNN1C(=O)c2c(c3c4cccc(O)c4n(C4OC(CO)C(O)C(O)C4O)c3c3[nH]c4c(O)cccc4c23)C1=O (configuration not stated)",
    "Answer Label": "Not satisfied"
  },
  {
    "Compound": "O=C1NC(=O)c2c1c1c3cccc(O)c3[nH]c1c1[nH]c3c(O)cccc3c21",
    "Answer Label": "Not satisfied"
  },
  {
    "Compound": "O=C(NN1C(=O)c2c(c3c4cccc(O)c4n(C4OC(CO)C(O)C(O)C4O)c3c3[nH]c4c(O)cccc4c23)C1=O)c1ccccn1 (configuration not stated)",
    "Answer Label": "Satisfied"
  },
  {
    "Compound": "CS(=O)(=O)NN1C(=O)c2c(c3c4cccc(O)c4n(C4OC(CO)C(O)C(O)C4O)c3c3[nH]c4c(O)cccc4c23)C1=O (configuration not stated)",
    "Answer Label": "Satisfied"
  },
  {
    "Compound": "O=C1c2c(c3c4cccc(O)c4n(C4OC(CO)C(O)C(O)C4O)c3c3[nH]c4c(O)cccc4c23)C(=O)N1NCC(O)CO (configuration not stated)",
    "Answer Label": "Not satisfied"
  },
  {
    "Compound": "Cc1ccc(S(=O)(=O)NN2C(=O)c3c(c4c5cccc(O)c5n(C5OC(CO)C(O)C(O)C5O)c4c4[nH]c5c(O)cccc5c34)C2=O)cc1 (configuration not stated)",
    "Answer Label": "Satisfied"
  },
  {
    "Compound": "O=C(NN1C(=O)c2c(c3c4cccc(O)c4n(C4OC(CO)C(O)C(O)C4O)c3c3[nH]c4c(O)cccc4c23)C1=O)c1ccccc1 (configuration not stated)",
    "Answer Label": "Satisfied"
  }
]

Reference for the values: ChEMBL document CHEMBL1131686
